Give MIC for every item shown.
# System: E. faecium V286-17 (VRE)
# EXPERIMENTAL_PROTOCOL: microbe, parasite or virus in culture
# Format: cell-based, Enterococcus faecium
# TEST_PARAMETERS: Enterococcus faecium, VRE, Table 14; read-out: MIC E. faecium V286-17 (VRE)
# Protocol: The bacterial strains used include the Gram-positive strains Staphylococcus aureus USA300 LAC, S. epidermidis 1457, and Bacillus subtilis 168, as well as the Gram-negative isolates Escherichia coli K12 and Acinetobacter baumannii B2367-12. […] The antibacterial activity of peptides was evaluated using a standard broth microdilution protocol with minor modifications as described (Mishra, et al. (2012) J. Am. Chem. Soc., 134:12426-12429). […]

Below, 3 compounds whose answers are already recorded.
INSERT INTO results (compound, test_target, val) VALUES
  ('CO[C@H]1/C=C/O[C@@]2(C)Oc3c(C)c(O)c4c(O)c(cc(O)c4c3C2=O)NC(=O)/C(C)=C\C=C\[C@H](C)[C@H](O)[C@@H](C)[C@@H](O)[C@@H](C)[C@H](OC(C)=O)[C@@H]1C [Rifamycin, reference compound]', 'E. faecium V286-17 (VRE)', '> 8 µM'),
  ('CCCCCCCCCC(=O)N[C@@H](Cc1c[nH]c2ccccc12)C(=O)N[C@H](CC(N)=O)C(=O)N[C@@H](CC(=O)O)C(=O)N[C@@H]1C(=O)NCC(=O)N[C@@H](CCCN)C(=O)N[C@@H](CC(=O)O)C(=O)N[C@H](C)C(=O)N[C@@H](CC(=O)O)C(=O)NCC(=O)N[C@H](CO)C(=O)N[C@@H]([C@H](C)CC(=O)O)C(=O)N[C@@H](CC(=O)c2ccccc2N)C(=O)O[C@@H]1C', 'E. faecium V286-17 (VRE)', '4 µM'),
  ('NC[C@H]1O[C@H](O[C@H]2[C@H](O)[C@@H](O[C@H]3O[C@H](CO)[C@@H](O)[C@H](N)[C@H]3O)[C@H](N)C[C@@H]2N)[C@H](N)C[C@@H]1O [Tobramycin, reference compound]', 'E. faecium V286-17 (VRE)', '> 8 µM');

Identify the measured MIC of C[C@@H](O)[C@H]1C(=O)N2C(C(=O)O)=C(S[C@@H]3CN[C@H](CNS(N)(=O)=O)C3)[C@H](C)[C@H]12 [Doripenem, reference compound] for E. faecium V286-17 (VRE). > 8 µM

----------
# System: E. coli ATCC 25922
# Type: cell-based, Escherichia coli
# TEST_PARAMETERS: ATCC 25922
Square brackets hold non-standard residues; d marks the D form. Peptide text beside a SMILES is read from it. Orn = NCCC[C@H](N)C(=O)O
READOUT_LABEL: MIC E. coli ATCC 25922

Reference set (3 entries):
INSERT INTO measurements (molecule, test_target, val) VALUES
  ('CC[C@H](C)[C@H](NC(=O)[C@H](CCCCN)NC(=O)[C@H](CCCNC(=N)N)NC(=O)[C@H](CC(C)C)NC(=O)[C@H](Cc1c[nH]c2ccccc12)NC(=O)[C@H](Cc1c[nH]c2ccccc12)NC(=O)[C@@H](N)Cc1c[nH]c2ccccc12)C(=O)N[C@@H](Cc1c[nH]c2ccccc12)C(N)=O [WW291, WWWLRKIW] (H-WWWLRKIW-NH2; N-terminus and C-terminus assumed)', 'E. coli ATCC 25922', '6.2 to 12.5 µM'),
  ('CC(C)C[C@H](NC(=O)[C@H](CC(C)C)NC(=O)[C@H](CCCN)NC(=O)CNC(=O)[C@H](CC(C)C)NC(=O)[C@H](C)NC(=O)[C@H](CCCN)NC(=O)[C@H](CC(C)C)NC(=O)[C@H](C)NC(=O)[C@H](CO)NC(=O)[C@H](CC(C)C)NC(=O)[C@H](CC(C)C)NC(=O)CN)C(N)=O [DFT516, GLLSALOALGOLL] (H-GLLSAL[Orn]ALG[Orn]LL-NH2; N-terminus assumed)', 'E. coli ATCC 25922', '3.1 to 6.25 µM'),
  ('CC[C@H](C)[C@H](NC(=O)[C@@H](N)CCCCN)C(=O)N[C@@H](Cc1c[nH]c2ccccc12)C(=O)N[C@@H](Cc1c[nH]c2ccccc12)C(=O)N[C@@H](Cc1c[nH]c2ccccc12)C(=O)N[C@@H](Cc1c[nH]c2ccccc12)C(=O)N[C@@H](CC(C)C)C(=O)N[C@@H](CCCNC(=N)N)C(=O)O [WW296, KIWWWWLR] (H-KIWWWWLR-OH; N-terminus and C-terminus assumed)', 'E. coli ATCC 25922', '6.2 to 12.5 µM');

Now let's try a different one.
Form: Entry = CC(C)C[C@H](NC(=O)[C@H](CC(C)C)NC(=O)[C@H](CCCCN)NC(=O)CNC(=O)[C@H](C)NC(=O)[C@H](C)NC(=O)[C@H](CCCCN)NC(=O)[C@H](CC(C)C)NC(=O)[C@H](C)NC(=O)[C@H](CO)NC(=O)[C@H](CC(C)C)NC(=O)[C@H](CC(C)C)NC(=O)CN)C(N)=O [DFT521, GLLSALKAAGKLL] (H-GLLSALKAAGKLL-NH2; N-terminus assumed) | System = E. coli ATCC 25922 | MIC E. coli ATCC 25922 = ____ 12.5 µM
